FYI, the data here is from patent US20240132593A1.

Target: VSTB174
Sequence (VH, as listed by the source, chain 1 of 2): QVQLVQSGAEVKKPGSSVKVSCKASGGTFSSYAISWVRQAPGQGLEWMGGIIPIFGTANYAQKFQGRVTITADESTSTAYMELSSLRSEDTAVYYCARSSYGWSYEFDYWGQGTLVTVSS
Sequence (VL, as listed by the source, chain 2 of 2): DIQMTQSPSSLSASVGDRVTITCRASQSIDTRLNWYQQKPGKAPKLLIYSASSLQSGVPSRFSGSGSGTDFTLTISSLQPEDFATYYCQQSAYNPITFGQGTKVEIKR
Assay: peptide blocking ELISA on plate-bound VISTA, peptide 20 ug/mL
Could you mark each record rule met if its percent reduction in ELISA signal falls strictly under 40%, and rule not met if it equals or exceeds it?

Binder: GLESASDHHGNFSIT (synthetic overlapping peptide from human VISTA) [Spiked Peptide 18 (GLESASDHHGNFSIT)]
Classification: rule met
--
Binder: QNVTLTCRLLGPVDK (synthetic overlapping peptide from human VISTA) [Spiked Peptide 4 (QNVTLTCRLLGPVDK)]
Classification: rule met
--
Binder: TFQDLHLHHGGHQAA (synthetic overlapping peptide from human VISTA) [Spiked Peptide 13 (TFQDLHLHHGGHQAA)]
Classification: rule not met
--
Binder: NFSITMRNLTLLDSG (synthetic overlapping peptide from human VISTA) [Spiked Peptide 20 (NFSITMRNLTLLDSG)]
Classification: rule not met
--
Binder: AMELQVQTGKDAPSN (synthetic overlapping peptide from human VISTA) [Spiked Peptide 27 (AMELQVQTGKDAPSN)]
Classification: rule met
--
Binder: GHDVTFYKTWYRSSR (synthetic overlapping peptide from human VISTA) [Spiked Peptide 7 (GHDVTFYKTWYRSSR)]
Classification: rule met
--
Binder: CVVYPSSSQESENIT (synthetic overlapping peptide from human VISTA) [Spiked Peptide 30 (CVVYPSSSQESENIT)]
Classification: rule met
--
Binder: VVEIRHHHSEHRVHG (synthetic overlapping peptide from human VISTA) [Spiked Peptide 24 (VVEIRHHHSEHRVHG)]
Classification: rule not met
--
Binder: GHQAANTSHDLAQRH (synthetic overlapping peptide from human VISTA) [Spiked Peptide 15 (GHQAANTSHDLAQRH)]
Classification: rule met
--
Binder: DAPSNCVVYPSSSQE (synthetic overlapping peptide from human VISTA) [Spiked Peptide 29 (DAPSNCVVYPSSSQE)]
Classification: rule met
--
Binder: PIRNLTFQDLHLHHG (synthetic overlapping peptide from human VISTA) [Spiked Peptide 12 (PIRNLTFQDLHLHHG)]
Classification: rule not met
--
Binder: YRSSRGEVQTCSERR (synthetic overlapping peptide from human VISTA) [Spiked Peptide 9 (YRSSRGEVQTCSERR)]
Classification: rule met
--
Binder: GPVDKGHDVTFYKTW (synthetic overlapping peptide from human VISTA) [Spiked Peptide 6 (GPVDKGHDVTFYKTW)]
Classification: rule met
--
Binder: LYCCLVVEIRHHHSE (synthetic overlapping peptide from human VISTA) [Spiked Peptide 23 (LYCCLVVEIRHHHSE)]
Classification: rule not met
--
Binder: CSERRPIRNLTFQDL (synthetic overlapping peptide from human VISTA) [Spiked Peptide 11 (CSERRPIRNLTFQDL)]
Classification: rule met
--
Binder: SSSQESENITAA (synthetic overlapping peptide from human VISTA) [Spiked Peptide 31 (SSSQESENITAA)]
Classification: rule met
